Source of measurements: paper PMC11995216

System: PAMPA
CONDITION NOTES: Papp (x 10^-6 cm/s) – UV Detection / [row 1]; UV Detection
MEASURED ENDPOINT: Papp (×10⁻⁶ cm/s)

1. CCCCC[C@@H]1OC(=O)[C@@H](C)N(C)C(=O)[C@H](CCCCC)OC(=O)[C@@H](C)N(C)C(=O)[C@H](CCCCC)OC(=O)[C@@H](C)N(C)C(=O)[C@H](CCCCC)OC(=O)[C@@H](C)N(C)C1=O [Compound C1.4, ent-verticilide] ... 6.39
2. CCCCC[C@@H]1OC(=O)[C@@H](C)N(C)C(=O)[C@H](CCCCC)OC(=O)[C@@H](C)N(C)C(=O)[C@H](CCCCC)OC(=O)[C@@H](C)N(C)C1=O [Compound C1.3, ent-verticilide B1] ... 3.32
3. CCCCC[C@@H]1OC(=O)[C@@H](C)N(C)C1=O [Compound C1.1] ... 15.1
4. CCCCC[C@@H]1OC(=O)[C@@H](C)N(C)C(=O)[C@H](CCCCC)OC(=O)[C@@H](C)N(C)C1=O [Compound C1.2] ... 4.63
5. CCCCC[C@@H]1OC(=O)[C@@H](C)N(C)C(=O)[C@H](CCCCC)OC(=O)[C@@H](C)N(C)C(=O)[C@H](CCCCC)OC(=O)[C@@H](C)N(C)C(=O)[C@H](CCCCC)OC(=O)[C@@H](C)N(C)C(=O)[C@H](CCCCC)OC(=O)[C@@H](C)N(C)C1=O [Compound C1.5] ... 3.3
6. CCCCC[C@@H]1OC(=O)[C@@H](C)N(C)C(=O)[C@H](CCCCC)OC(=O)[C@@H](C)N(C)C(=O)[C@H](CCCCC)OC(=O)[C@@H](C)N(C)C(=O)[C@H](CCCCC)OC(=O)[C@@H](C)N(C)C(=O)[C@H](CCCCC)OC(=O)[C@@H](C)N(C)C(=O)[C@H](CCCCC)OC(=O)[C@@H](C)N(C)C1=O [Compound C1.6] ... 1.95
